- test.target: human αVβ3 (Homo sapiens, UniProt P05106+P06756)
- Sequence (P06756 31-992 limits assumed): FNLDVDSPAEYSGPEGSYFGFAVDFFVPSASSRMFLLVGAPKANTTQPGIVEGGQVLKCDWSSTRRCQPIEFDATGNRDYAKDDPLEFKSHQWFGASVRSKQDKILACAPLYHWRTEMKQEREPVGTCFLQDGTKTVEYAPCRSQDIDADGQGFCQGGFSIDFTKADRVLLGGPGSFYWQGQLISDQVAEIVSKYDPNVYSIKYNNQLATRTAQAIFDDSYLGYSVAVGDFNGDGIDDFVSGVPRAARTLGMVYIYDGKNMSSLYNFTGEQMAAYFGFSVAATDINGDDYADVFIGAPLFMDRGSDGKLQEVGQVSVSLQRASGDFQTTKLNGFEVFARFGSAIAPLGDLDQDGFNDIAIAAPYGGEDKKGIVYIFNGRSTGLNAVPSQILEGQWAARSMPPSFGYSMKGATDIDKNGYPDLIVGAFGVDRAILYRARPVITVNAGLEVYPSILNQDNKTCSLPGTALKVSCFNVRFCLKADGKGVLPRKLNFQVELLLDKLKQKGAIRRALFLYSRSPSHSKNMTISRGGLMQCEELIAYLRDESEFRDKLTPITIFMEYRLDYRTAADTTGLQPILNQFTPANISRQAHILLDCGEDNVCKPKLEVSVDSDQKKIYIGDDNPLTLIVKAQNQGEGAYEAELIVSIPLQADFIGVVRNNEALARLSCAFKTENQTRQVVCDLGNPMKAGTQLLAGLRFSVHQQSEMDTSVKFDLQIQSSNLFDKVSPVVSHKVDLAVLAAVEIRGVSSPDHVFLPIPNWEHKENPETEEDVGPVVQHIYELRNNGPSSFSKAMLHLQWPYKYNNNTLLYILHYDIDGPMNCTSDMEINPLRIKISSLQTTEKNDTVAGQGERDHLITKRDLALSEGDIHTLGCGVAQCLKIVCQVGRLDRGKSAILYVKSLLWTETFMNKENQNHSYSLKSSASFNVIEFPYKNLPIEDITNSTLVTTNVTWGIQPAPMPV
- Sequence (P05106 27-718 limits assumed): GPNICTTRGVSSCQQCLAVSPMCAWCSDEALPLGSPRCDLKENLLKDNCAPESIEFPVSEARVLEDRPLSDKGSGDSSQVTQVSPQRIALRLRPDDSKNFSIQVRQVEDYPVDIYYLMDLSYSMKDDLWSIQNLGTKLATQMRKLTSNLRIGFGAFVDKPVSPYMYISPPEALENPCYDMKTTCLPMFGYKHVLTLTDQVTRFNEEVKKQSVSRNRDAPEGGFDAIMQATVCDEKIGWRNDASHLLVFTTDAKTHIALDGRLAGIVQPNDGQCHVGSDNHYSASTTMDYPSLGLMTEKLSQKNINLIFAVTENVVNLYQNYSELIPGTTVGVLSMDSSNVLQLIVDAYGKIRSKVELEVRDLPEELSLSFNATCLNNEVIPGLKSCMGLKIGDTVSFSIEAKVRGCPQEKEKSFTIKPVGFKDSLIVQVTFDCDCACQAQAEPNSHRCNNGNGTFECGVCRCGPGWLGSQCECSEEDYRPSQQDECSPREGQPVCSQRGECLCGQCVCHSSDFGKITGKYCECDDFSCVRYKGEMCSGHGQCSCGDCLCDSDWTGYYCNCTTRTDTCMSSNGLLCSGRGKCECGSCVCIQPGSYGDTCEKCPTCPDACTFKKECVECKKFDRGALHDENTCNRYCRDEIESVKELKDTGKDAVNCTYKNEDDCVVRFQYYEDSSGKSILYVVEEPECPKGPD
- run.description: human αVβ3 HTRF binding assay
Where a name gives a salt, the structure may show the parent alone.
Lab note: compare IC50 with 2 nM, writing y if less and n if equal or more.

# compound, category.label
measured = [
    ("O=C(O)CC(c1cncc(C2OCCO2)c1)n1ncc2cc(OCCc3ccc4c(n3)NCCC4)ccc21 (stereo not drawn) [Example 104]", "n"),
    ("COc1ncc(C(CC(=O)O)n2ncc3cc(OCCc4ccc5c(n4)NCCC5)ccc32)cn1 (stereo not drawn) [Example 92, TFA]", "n"),
    ("O=C(O)CC(c1cncc(N2CCCC2=O)c1)n1ncc2cc(OCCc3ccc4c(n3)NCCC4)ccc21 (stereo not drawn) [Example 102, TFA]", "n"),
    ("O=C(O)CC(c1cncc(CO)c1)n1ncc2cc(OCCc3ccc4c(n3)NCCC4)ccc21 (stereo not drawn) [Example 89]", "n"),
    ("COc1ccc([C@H](CC(=O)O)n2ncc3cc(OCCc4ccc5c(n4)NCCC5)ccc32)cn1 [Example 41]", "n"),
    ("CCOc1ncc(C(CC(=O)O)n2ncc3cc(OCCc4ccc5c(n4)NCCC5)ccc32)cn1 (stereo not drawn) [Example 77, TFA]", "n"),
    ("O=C(O)C[C@@H](c1cnc2ccccc2c1)n1cc2ccc(CCCc3ccc4c(n3)NCCC4)cc2n1 [Example 87]", "n"),
    ("Cn1cc2cc(C(CC(=O)O)n3ncc4cc(OCCc5ccc6c(n5)NCCC6)ccc43)cnc2n1 (stereo not drawn) [Example 120, TFA]", "y"),
    ("O=C(O)CC(c1cnc2[nH]ncc2c1)n1ncc2cc(OCCc3ccc4c(n3)NCCC4)ccc21 (stereo not drawn) [Example 106, TFA]", "y"),
]

* * *

- test.target: human αVβ6 (Homo sapiens, UniProt P06756+P18564)
- Sequence (P06756 31-992 limits assumed): as the sequence (P06756 31-992 limits assumed) above
- Sequence (P18564 22-707 limits assumed): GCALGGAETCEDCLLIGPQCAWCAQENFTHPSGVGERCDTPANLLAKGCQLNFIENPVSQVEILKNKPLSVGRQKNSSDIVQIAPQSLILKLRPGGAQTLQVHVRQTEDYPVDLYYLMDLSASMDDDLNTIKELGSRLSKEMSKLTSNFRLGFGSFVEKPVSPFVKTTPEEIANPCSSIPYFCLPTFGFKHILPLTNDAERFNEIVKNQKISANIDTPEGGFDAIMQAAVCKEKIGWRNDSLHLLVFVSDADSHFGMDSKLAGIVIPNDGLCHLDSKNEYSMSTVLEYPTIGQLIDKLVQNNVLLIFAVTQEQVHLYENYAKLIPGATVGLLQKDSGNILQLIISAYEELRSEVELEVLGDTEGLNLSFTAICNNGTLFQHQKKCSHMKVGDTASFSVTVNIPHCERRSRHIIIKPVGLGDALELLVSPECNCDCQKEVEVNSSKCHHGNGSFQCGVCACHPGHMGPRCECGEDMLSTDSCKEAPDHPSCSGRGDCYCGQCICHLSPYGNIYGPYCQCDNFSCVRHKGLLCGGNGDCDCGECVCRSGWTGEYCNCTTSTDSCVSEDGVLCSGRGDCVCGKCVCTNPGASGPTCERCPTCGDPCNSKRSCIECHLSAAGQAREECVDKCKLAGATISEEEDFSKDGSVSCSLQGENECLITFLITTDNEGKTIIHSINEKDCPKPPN
- run.description: human αVβ6 HTRF binding assay
- condition.summary: recombinant human αVβ6 integrin, FITC-conjugated fibronectin

# compound, IC50
records = [
    ("COc1ccc([C@H](CC(=O)O)n2cc3ccc(CCc4ccc5c(n4)NCCC5)cc3n2)cn1", "6.6 nM"),
    ("COc1ccc([C@H](CC(=O)O)n2ncc3cc(OCCc4ccc5c(n4)NCCC5)ccc32)cn1", "6.2 nM"),
    ("O=C(O)CC(c1cnc2ccccc2n1)n1ncc2cc(OCCc3ccc4c(n3)NCCC4)ccc21 (racemic)", "6 nM"),
]

* * *

- test.target: human αVβ6 (Homo sapiens, UniProt P06756+P18564)
- run.description: human αVβ6 HTRF binding assay
- condition.summary: recombinant human αVβ6 integrin, FITC-conjugated fibronectin
Structures can show the parent of a compound that is named as a salt.
measured.attribute: IC50

# compound, test.target, result
rows = [
    ("O=C(O)C[C@H](c1cnc2nccnc2c1)n1ncc2cc(OCCc3ccc4c(n3)NCCC4)ccc21", "human αVβ6 (Homo sapiens, UniProt P06756+P18564)", "25 nM"),
    ("O=C(O)CC(c1cc(Cl)cc(Cl)c1)n1ncc2c(OCCc3ccc4c(n3)NCCC4)cccc21 (stereo not drawn)", "human αVβ6 (Homo sapiens, UniProt P06756+P18564)", "1300 nM"),
    ("CN(C)C(=O)c1cccc(C(CC(=O)O)n2ncc3c(OCCc4ccc5c(n4)NCCC5)cccc32)c1 (stereo not drawn)", "human αVβ6 (Homo sapiens, UniProt P06756+P18564)", "1500 nM"),
    ("O=C(O)C[C@@H](c1cnc2ccccc2c1)n1cc2ccc(CCC3CCc4cccnc4N3)cc2n1 (stereo partly drawn)", "human αVβ6 (Homo sapiens, UniProt P06756+P18564)", "4.7 nM"),
    ("COc1ccc([C@H](CC(=O)O)n2cc3ccc(CCCc4ccc5c(n4)NCCC5)cc3n2)cn1", "human αVβ6 (Homo sapiens, UniProt P06756+P18564)", "2.6 nM"),
    ("O=C(O)C[C@@H](c1cncc(N2CCCC2=O)c1)n1ncc2cc(OCCc3ccc4c(n3)NCCC4)ccc21", "human αVβ6 (Homo sapiens, UniProt P06756+P18564)", "1 nM"),
    ("O=C(O)CC(c1cncc(N2CCOCC2)c1)n1ncc2cc(OCCc3ccc4c(n3)NCCC4)ccc21 (stereo not drawn) [Example 124, TFA]", "human αVβ6 (Homo sapiens, UniProt P06756+P18564)", "1.9 nM"),
    ("COc1ccc(C(CC(=O)O)n2ncc3cc(OCCc4ccc5c(n4)NCCN5C)ccc32)cn1 (stereo not drawn)", "human αVβ6 (Homo sapiens, UniProt P06756+P18564)", "47 nM"),
    ("CN(C)C(=O)c1cccc([C@@H](CC(=O)O)n2ncc3cc(OCCc4ccc5c(n4)NCCC5)ccc32)c1", "human αVβ6 (Homo sapiens, UniProt P06756+P18564)", "1100 nM"),
    ("O=C(O)CC(c1ccc2c(c1)CCO2)n1ncc2cc(OCCc3ccc4c(n3)NCCC4)ccc21 (stereo not drawn) [Example 47, TFA]", "human αVβ6 (Homo sapiens, UniProt P06756+P18564)", "7 nM"),
    ("O=C(O)CC(c1cnc2ccccc2n1)n1ncc2c(OCCc3ccc4c(n3)NCCC4)cccc21 (stereo not drawn)", "human αVβ6 (Homo sapiens, UniProt P06756+P18564)", "1600 nM"),
    ("O=C(O)CC(c1cccc(N2CCOCC2)c1)n1ncc2cc(OCCc3ccc4c(n3)NCCC4)ccc21 (stereo not drawn) [Example 58, TFA]", "human αVβ6 (Homo sapiens, UniProt P06756+P18564)", "1.7 nM"),
    ("CN(C)C(=O)c1cccc([C@H](CC(=O)O)n2ncc3cc(OCCc4ccc5c(n4)NCCC5)ccc32)c1", "human αVβ6 (Homo sapiens, UniProt P06756+P18564)", "4.2 nM"),
    ("O=C(O)CC(c1cc(Cl)cc(Cl)c1)n1ncc2c(CCCc3ccc4c(n3)NCCC4)cccc21 (stereo not drawn)", "human αVβ6 (Homo sapiens, UniProt P06756+P18564)", "2700 nM"),
    ("O=C(NC(Cn1ncc2c(OCCc3ccc4c(n3)NCCC4)cccc21)C(=O)O)OCc1ccccc1 (stereo not drawn)", "human αVβ6 (Homo sapiens, UniProt P06756+P18564)", "340 nM"),
    ("COc1ccc([C@H](CC(=O)O)n2cc3ccc(CCc4cc5c(nc4C)NCCC5)cc3n2)cn1", "human αVβ6 (Homo sapiens, UniProt P06756+P18564)", "160 nM"),
    ("O=C(O)CC(C1CCCCC1)n1ncc2cc(OCCc3ccc4c(n3)NCCC4)ccc21 (stereo not drawn)", "human αVβ6 (Homo sapiens, UniProt P06756+P18564)", "3200 nM"),
    ("CN1CCN(C(=O)c2cncc(C(CC(=O)O)n3ncc4cc(OCCc5ccc6c(n5)NCCC6)ccc43)c2)CC1 (stereo not drawn)", "human αVβ6 (Homo sapiens, UniProt P06756+P18564)", "29 nM"),
    ("O=C(O)CC(c1cncc(N2CCCC2)c1)n1ncc2cc(OCCc3ccc4c(n3)NCCC4)ccc21 (stereo not drawn) [Example 127, TFA]", "human αVβ6 (Homo sapiens, UniProt P06756+P18564)", "6.2 nM"),
    ("COc1cnc(C(CC(=O)O)n2ncc3cc(OCCc4ccc5c(n4)NCCC5)ccc32)cn1 (stereo not drawn) [Example 79, TFA]", "human αVβ6 (Homo sapiens, UniProt P06756+P18564)", "33 nM"),
    ("O=C(O)CC(c1cncc(CO)c1)n1ncc2cc(OCCc3ccc4c(n3)NCCC4)ccc21 (stereo not drawn)", "human αVβ6 (Homo sapiens, UniProt P06756+P18564)", "19 nM"),
]

Sourced from patent US10745384B2
